Can you tell me pKd for the items I'm about to list?
Molecular target: proMMP9(20-445;ΔFnII) (SEQ ID NO:6) (Homo sapiens, UniProt P14780, DEL216-390)
Construct: start methionine (N)
Test: ThermoFluor binding assay with proMMP9(20-445;ΔFnII)
Would you please state pKd, meaning minus log10 of the concentration in mol/L, as a bare number?

Record CC(C)Oc1ccc(S(N)(=O)=O)cc1Nc1nc(-c2ccc(N3CCOCC3)nc2)cs1 [Example 37] , field pKd: 5.89

Record CC(C)Oc1ccc(S(N)(=O)=O)cc1Nc1nc(-c2ccc(NCCCn3ccnc3)nc2)cs1 [Example 63] , field pKd: 6.68

Record CC(C)Oc1ccc(C(N)=O)cc1Nc1nc(-c2cnccc2C(C)C)cs1 [Example 23] , field pKd: 4.96

Record CC(C)Oc1ccc(S(N)(=O)=O)cc1Nc1nc(-c2ccc(NCC3CC3)nc2)cs1 [Example 62] , field pKd: 6.29

Record CC(C)Oc1ccc(S(N)(=O)=O)cc1Nc1nc(-c2ccc(N3CCN(S(C)(=O)=O)CC3)nc2)cs1 [Example 83] , field pKd: 6.51

Record COc1ccc(C(N)=O)cc1Nc1nc(-c2cccnc2)cs1 [Example 4] , field pKd: 5.89

Record CC(C)Oc1ccc(S(N)(=O)=O)cc1Nc1nc(-c2ccc(C(=O)NCC3CCOCC3)nc2)cs1 [Example 91] , field pKd: 5.62

Record CC(C)Oc1ccc(S(N)(=O)=O)cc1Nc1nc(-c2ccc(C(=O)N3CCNCC3)nc2)cs1 [Example 58] , field pKd: 5.92

###

Can you tell me Kd for the items I'm about to list?
Biological target: proMMP9(67-444;ΔFnII) (SEQ ID NO:5) (Homo sapiens, UniProt P14780, DEL216-390)
Construct: start methionine (N)
Sequence (P14780 with tags, fused parts or gaps DEL216-390): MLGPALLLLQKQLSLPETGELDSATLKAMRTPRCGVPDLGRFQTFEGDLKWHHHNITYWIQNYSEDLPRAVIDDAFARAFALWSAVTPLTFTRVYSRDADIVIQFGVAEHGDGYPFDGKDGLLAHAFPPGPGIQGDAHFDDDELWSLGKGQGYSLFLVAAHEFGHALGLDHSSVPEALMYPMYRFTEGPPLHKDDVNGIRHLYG
Assay: ThermoFluor binding assay with proMMP9(67-444;ΔFnII)
Express it in nM; write the number only.

Record CC(C)Oc1ccc(S(N)(=O)=O)cc1Nc1nc(-c2ccc(NCC3CC3)nc2)cs1 , field Kd: 2200

Record CN1CCN(c2ccc(-c3csc(Nc4cc(S(N)(=O)=O)ccc4OC(F)(F)F)n3)cn2)CC1 , field Kd: 690

Record Cc1cc(C)c(-c2csc(Nc3cc(C(N)=O)ccc3OC(C)C)n2)c(C)n1 , field Kd: 14000

Record CC(C)Oc1ccc(S(N)(=O)=O)cc1Nc1nc(-c2ccc(C(=O)N(C)CCN(C)C)nc2)cs1 , field Kd: 2300

Record CC(C)Oc1ccc(C(N)=O)cc1Nc1nc(-c2ccnc(N3CCN(C)CC3)c2)cs1 , field Kd: 990

Record CC(C)Cc1ccc(C(N)=O)cc1Nc1nc(-c2ccc(N3CCN(C)CC3)nc2)cs1 , field Kd: 2900

Record CCOc1ccc(-c2ncco2)cc1Nc1nc(-c2cccnc2)cs1 , field Kd: 660

Record CC(C)Oc1ccc(S(N)(=O)=O)cc1Nc1nc(-c2ccc(N3CCOCC3)nc2)cs1 , field Kd: 2400

Record CC(C)Oc1ccc(C(N)=O)cc1Nc1nc(-c2ccncc2)cs1 , field Kd: 470

Record CC(C)Oc1ccc(S(N)(=O)=O)cc1Nc1nc(-c2ccc(C(=O)NC3CC(C)(C)N(C)C(C)(C)C3)nc2)cs1 , field Kd: 200

Record CC(C)CCNC(=O)c1ccc(-c2csc(Nc3cc(S(N)(=O)=O)ccc3OC(C)C)n2)cn1 , field Kd: 32000

Record CCN1CCN(C(=O)c2ccc(-c3csc(Nc4cc(S(N)(=O)=O)ccc4OC(C)C)n3)cn2)CC1 , field Kd: 1500

Record CCS(=O)(=O)c1ccc(OC)c(Nc2nc(-c3cccnc3)cs2)c1 , field Kd: 16000

Record CC(C)Oc1ccc(S(N)(=O)=O)cc1Nc1nc(-c2ccc(N3CCN(C(C)C)CC3)nc2)cs1 , field Kd: 170

Record CC(C)Oc1ccc(S(N)(=O)=O)cc1Nc1nc(-c2ccc(C(=O)N3CCN(C(=O)OC(C)(C)C)CC3)nc2)cs1 , field Kd: 2500

Record CC(C)Oc1ccc(S(N)(=O)=O)cc1Nc1nc(-c2ccc(C(=O)N3CCN(C(C)C)CC3)nc2)cs1 , field Kd: 2700

Record COc1ccc(-c2csc(Nc3cc(C(N)=O)ccc3OC(C)C)n2)cn1 , field Kd: 2000

Record COc1ccc(S(N)(=O)=O)cc1Nc1nc(-c2ccc(N3CCN(C)CC3)nc2)cs1 , field Kd: 1600

Record CC(C)Oc1ccc(S(N)(=O)=O)cc1Nc1nc(-c2cccnc2)cs1 , field Kd: 10000

Record NC(=O)c1ccc(OC(F)(F)F)c(Nc2nc(-c3ccnc(Cl)c3)cs2)c1 , field Kd: 1500

Record CC(C)Oc1ccc(C(=O)O)cc1Nc1nc(-c2cccnc2)cs1 , field Kd: 5700

Record CC(C)Oc1ccc(S(N)(=O)=O)cc1Nc1nc(-c2ccc(N3CCN(C)CC3)nc2)cs1 , field Kd: 120

Record COc1ccc(C#N)cc1Nc1nc(-c2cccnc2)cs1 , field Kd: 43000

Record COc1ccc(C(N)=O)cc1Nc1nc(-c2cccnc2)cs1 , field Kd: 3300

Record CN1CCN(c2cc(-c3csc(Nc4cc(C(N)=O)ccc4OC(F)(F)F)n3)ccn2)CC1 , field Kd: 7200

Record CC(C)Oc1ccc(S(N)(=O)=O)cc1Nc1nc(-c2ccc(N(C)CCN(C)C)nc2)cs1 , field Kd: 1700

Record CCOc1ccc(C(N)=O)cc1Nc1nc(-c2cccnc2)cs1 , field Kd: 1500

Record Cc1cc2cccc(Nc3nc(-c4cccnc4)cs3)c2o1 , field Kd: 38000

Record CC(C)Oc1ccc(C(N)=O)cc1Nc1nc(-c2ccc(Cl)nc2)cs1 , field Kd: 3300

Record CC(C)Oc1ccc(C(N)=O)cc1Nc1nc(-c2ccccn2)cs1 , field Kd: 1900

Record COc1cc(C(N)=O)ccc1Nc1nc(-c2cccnc2)cs1 , field Kd: 11000

Record CC(C)Oc1ccc(S(N)(=O)=O)cc1Nc1nc(-c2ccnc(N3CCN(C)CC3)c2)cs1 , field Kd: 460

Record CC(C)Oc1ccc(S(N)(=O)=O)cc1Nc1nc(-c2ccc(N3CCC(N(C)C)CC3)nc2)cs1 , field Kd: 220

Record CCN1CCN(c2ccc(-c3csc(Nc4cc(S(N)(=O)=O)ccc4OC(C)C)n3)cn2)CC1 , field Kd: 380
